Source: patent US8946266B2

System: Aβ42
test.summary: γ-secretase-modulating activity, Method 1: Aβ42 sandwich ELISA in supernatant of SKNBE2 cells carrying APP 695-wild type (Table 3a)
Type: cell-based
condition.summary: Homo sapiens, 18 h, averaged IC50 values
# pIC50 per record follows
Scale: negative log10 of molar concentration, which is what pIC50 denotes.

{"mol.smiles": "COc1cc(-c2nc(C)c(-c3ccccc3)[nH]2)ccc1-n1cnc(C)c1", "pIC50": 6.96}
{"mol.smiles": "Cc1cn(-c2ccc(-c3nc(Nc4cccc(C(F)(F)F)c4)n[nH]3)cn2)cn1", "pIC50": 5.84}
{"mol.smiles": "COc1cc(-c2nc(-c3ccccc3)n(C)n2)ccc1-n1cnc(C)c1", "pIC50": 6.10}
{"mol.smiles": "COc1cc(-c2nc(C)c(-c3cccc(C(F)(F)F)c3)[nH]2)ccc1-n1cnc(C)c1", "pIC50": 7.05}

# next compound below
What measured pIC50 goes with COc1cc(-c2nc(C)n(-c3ccc(F)cc3)n2)ccc1-n1cnc(C)c1 ? 6.31

###

Test system: Aβ42
test.summary: γ-secretase-modulating activity, Method 2: Aβ42 Alphalisa in supernatant of SKNBE2 cells carrying APP 695-wild type (Table 3b)
Assay type: cell-based
condition.summary: overnight
assay.endpoint: pIC50
Quick note: pIC50 values are minus log10 of concentrations in mol/L.

Worked set:
{"mol.smiles": "COc1cc(-c2nc(Nc3cc(C(F)(F)F)ccc3Cl)n(C)n2)ccc1-n1cnc(C)c1", "tgt": "Aβ42", "recorded.value": 8.00}
{"mol.smiles": "COc1ccc(C(F)(F)F)c(Nc2nc(-c3ccc(-n4cnc(C)c4)c(OC)c3)nn2C)c1", "tgt": "Aβ42", "recorded.value": 7.85}
{"mol.smiles": "COc1cc(-c2nc(Nc3cccc(Cl)c3F)n(C)n2)ccc1-n1cnc(C)c1", "tgt": "Aβ42", "recorded.value": 7.05}

Entry COc1cc(-c2nc(Nc3cc(F)ccc3C)n(C)n2)ccc1-n1cnc(C)c1 : reported pIC50 = ? 7.22

Again, but for COc1cc(-c2nc(Nc3ccccc3C(C)C)n(C)n2)ccc1-n1cnc(C)c1 7.72

// repeat for COc1cc(-c2nc(-c3ccc(F)cc3)n(C)n2)ccc1-n1cnc(C)c1 and report 6.45

Moving on to the next compound: COc1nc(-c2nc(Nc3cc(Cl)ccc3F)n(C)n2)ccc1-n1cnc(C)c1 7.22

Queued: COc1cc(-c2nc3n(n2)CCC[C@@H]3c2ccccc2Cl)ccc1-n1cnc(C)c1 6.63

###

Tested on: Aβ42
test.summary: γ-secretase-modulating activity, Method 2: Aβ42 Alphalisa in supernatant of SKNBE2 cells carrying APP 695-wild type (Table 3b)
Format: cell-based
condition.summary: Homo sapiens, overnight
assay.endpoint: IC50 (nM)
Unit nM implied. Number only.

Answered cases to consult:
{"compound": "COc1cc(-c2nc(N3CCCC(c4ccccc4)C3)n(C(C)C)n2)ccc1-n1cnc(C)c1 (centres unmarked)", "result.units": "nM", "IC50": 36}
{"compound": "COc1cc(-c2nc(Nc3cc(C(F)(F)F)ccc3F)n(C)n2)ccc1-n1ccnc1", "result.units": "nM", "IC50": 95}
{"compound": "COc1cc(-c2nc(-c3cccc(C(F)(F)F)c3)n(C(C)C)n2)ccc1-n1cnc(C)c1", "result.units": "nM", "IC50": 105}

Quick one: IC50 for COc1cc(-c2nc(N(C(C)=O)c3cc(F)c(F)cc3I)n(C)n2)ccc1-n1cnc(C)c1 ? 1410

Likewise for COc1nc(-c2nc(Nc3cc(C(F)(F)F)ccc3F)n(C)n2)ccc1-n1cnc(C)c1 ? 17

Let us now turn to COc1cc(-c2nc3n(n2)CCCC3c2ccc(F)cc2)ccc1-n1cnc(C)c1 (centres unmarked) 245

What about COc1cc(-c2nc3n(n2)CCNC3c2ccccc2C(F)(F)F)ccc1-n1cnc(C)c1 (centres unmarked) ? 398

Note, next up: COc1cc(-c2nc(C)c(-c3ccccc3)[nH]2)ccc1-n1cnc(C)c1 182

###

Tested on: Aβ42
test.summary: γ-secretase-modulating activity, Method 2: Aβ42 Alphalisa in supernatant of SKNBE2 cells carrying APP 695-wild type (Table 3b)
Assay type: cell-based
condition.summary: overnight
# Lookup of reported pIC50 keyed by entry
Value format note: pIC50 is -log10 of concentration (mol/L); just state the number.

Look over these answered cases.
{"molecule": "COc1cc(-c2nc(Nc3c(F)ccc(Cl)c3F)n(C)n2)ccc1-n1cnc(C)c1", "pIC50": 7.18}
{"molecule": "Cc1cn(-c2ccc(-c3nc(Nc4cc(C(F)(F)F)ccc4F)n(C)n3)nc2C)cn1", "pIC50": 6.31}
{"molecule": "COc1nc(-c2nc3n(n2)CCOC3c2ccccc2OC(F)(F)F)ccc1-n1cnc(C)c1 (centres unmarked)", "pIC50": 7.10}
{"molecule": "COc1cc(-c2nc(-c3ccc(-n4cnc(C)c4)c(OC)c3)nn2C)ccc1Cl", "pIC50": 6.83}
{"molecule": "COc1cc(-c2nc(Nc3ccc(Cl)cc3C(F)(F)F)n(C)n2)ccc1-n1cnc(C)c1", "pIC50": 7.48}
{"molecule": "COc1cccc(-c2nc(-c3ccc(-n4cnc(C)c4)c(OC)c3)nn2C)c1", "pIC50": 6.24}

Pending molecule:
Please look up its pIC50: COc1cc(-c2nc(-c3ccccc3Cl)n(CC(F)(F)F)n2)ccc1-n1cnc(C)c1 6.71

###

Tested on: Aβ42
test.summary: γ-secretase-modulating activity, Method 2: Aβ42 Alphalisa in supernatant of SKNBE2 cells carrying APP 695-wild type (Table 3b)
Type: cell-based
condition.summary: overnight
Each item that follows carries a reported IC50.
The answer should read as a number with its unit following.

{"molecule": "COc1cc(-c2nc3n(n2)CCC[C@H]3c2ccc(F)cc2C)ccc1-n1cnc(C)c1", "IC50": "0.026 µM"}

Please look up its IC50: COc1cc(-c2nc(Nc3cccc(Cl)c3)n(C)n2)ccc1-n1cnc(C)c1 0.036 µM

And what about the molecule COc1cc(-c2nc(-c3cc(C(F)(F)F)ccc3C)nn2C)ccc1-n1cnc(C)c1 ? 1.51 µM

// next record COc1cc(-c2nc(Nc3cc(Cl)ccc3C(F)(F)F)n(C)n2)ccc1-n1cnc(C)c1 0.03 µM

Please do the same for COc1cc(-c2nc(Nc3cc(S(C)(=O)=O)ccc3F)n(C)n2)ccc1-n1cnc(C)c1 as well. 1.07 µM

Request: COc1cc(-c2nc(C3(c4ccc(F)cc4)CC3)nn2C)ccc1-n1cnc(C)c1 8.51 µM

Param item: COc1nc(-c2nc3n(n2)CCOC3c2cc(OC(F)(F)F)ccc2F)ccc1-n1cnc(C)c1 (centres unmarked) 0.062 µM

Also check COc1cc(-c2nc3n(n2)CCOC3c2cc(OC(F)(F)F)ccc2F)ccc1-n1cnc(C)c1 (centres unmarked) [Compound 165] 0.138 µM

###

Tested on: Aβ42
test.summary: γ-secretase-modulating activity, Method 2: Aβ42 Alphalisa in supernatant of SKNBE2 cells carrying APP 695-wild type (Table 3b)
Format: cell-based
condition.summary: overnight
Procedure: Screening was carried out using SKNBE2 cells carrying the APP 695-wild type, grown in Dulbecco's Modified Eagle's Medium/Nutrient mixture F-12 (DMEM/NUT-mix F-12) (HAM) provided by Invitrogen (cat no. 10371-029) containing 5% Serum/Fe supplemented with 1% non-essential amino acids, 1-glutamine 2 mM, Hepes 15 mM, penicillin 50 U/ml (units/ml) en streptomycin 50 μg/ml. […] Aβtotal and Aβ42 concentrations were quantified in the cell supernatant using the Aphalisa technology (Perkin Elmer). […]
pIC50: −log10 of the molar value.
Given measured pIC50, output 1 (yes) if it is greater than or equal to 7 and 0 (no) if not.

Solved cases below.
{"molecule": "COc1cc(-c2nc3c(-c4cccc(OC(F)(F)F)c4)cccn3n2)ccc1-n1cnc(C)c1", "tgt": "Aβ42", "assigned.label": "0 (no)"}
{"molecule": "COc1cc(-c2nc(Nc3c(F)cccc3C(F)(F)F)n(C)n2)ccc1-n1cnc(C)c1", "tgt": "Aβ42", "assigned.label": "0 (no)"}
{"molecule": "COc1cc(-c2nc(-c3cccc(C(F)(F)F)c3)c(C)n2C)ccc1-n1cnc(C)c1", "tgt": "Aβ42", "assigned.label": "0 (no)"}
{"molecule": "COc1cc(-c2nc(Nc3cccc(Cl)c3Cl)n(C)n2)ccc1-n1cnc(C)c1", "tgt": "Aβ42", "assigned.label": "1 (yes)"}
{"molecule": "COc1cc(-c2nc(Nc3ccnc(C)c3)n(C)n2)ccc1-n1cnc(C)c1", "tgt": "Aβ42", "assigned.label": "0 (no)"}

Answer whether pIC50 of COc1cc(-c2nc3n(n2)CCC[C@H]3c2ccccc2Cl)ccc1-n1cnc(C)c1 is greater than or equal to 7. 1 (yes)

And for COc1nc(-c2nc3n(n2)CCC[C@@H]3c2ccccc2C(F)(F)F)ccc1-n1cnc(C)c1 ? 0 (no)

Moving on to the next molecule: COc1cc(-c2nc(-c3ccccc3C(F)(F)F)nn2C)ccc1-n1cnc(C)c1 0 (no)

Now the same for COc1cc(-c2nc(Nc3cc(C(F)(F)F)ccc3F)n(C)n2)ccc1-n1cnc(C)c1 1 (yes)

Please answer likewise for COc1cc(-c2nc(Nc3c(F)cccc3F)n(C)n2)ccc1-n1cnc(C)c1 0 (no)

# repeat for COc1cc(-c2nc(NCc3ccccc3)n(C)n2)ccc1-n1cnc(C)c1 0 (no)

Same thing, different molecule: COc1nc(-c2nc3n(n2)CCC[C@H]3c2ccc(F)cc2C)ccc1-n1cnc(C)c1 1 (yes)

Please answer likewise for COc1c(-n2cnc(C)c2)ccc(-c2nc(Nc3ccccc3C)n(C)n2)c1F 0 (no)

Also need COc1cc(-c2nc3n(n2)CCCC3c2cccc(F)c2)ccc1-n1cnc(C)c1 (stereo not drawn) , thanks. 0 (no)

Now give it for COc1cc(-c2nc(C(C)C)n(-c3cccc(C(F)(F)F)c3)n2)ccc1-n1cnc(C)c1.Cl too. 0 (no)

Item: COc1cc(-c2nc(Nc3cccc(F)c3Cl)n(C)n2)ccc1-n1cnc(C)c1 1 (yes)

Queued: COc1cc(-c2nc(N[C@@H](C)c3ccc(F)cc3)nn2C)ccc1-n1cnc(C)c1 0 (no)

Now this one: COc1cc(-c2nc(N3CCCOc4ccccc43)n(C)n2)ccc1-n1cnc(C)c1 0 (no)
